Assignment: determine reported Activity for the given compounds.
study_system: Nicotinic acetylcholine receptor alpha 5 subunit (Musca domestica) (UniProt A9XFY4)
Sequence (whole entry): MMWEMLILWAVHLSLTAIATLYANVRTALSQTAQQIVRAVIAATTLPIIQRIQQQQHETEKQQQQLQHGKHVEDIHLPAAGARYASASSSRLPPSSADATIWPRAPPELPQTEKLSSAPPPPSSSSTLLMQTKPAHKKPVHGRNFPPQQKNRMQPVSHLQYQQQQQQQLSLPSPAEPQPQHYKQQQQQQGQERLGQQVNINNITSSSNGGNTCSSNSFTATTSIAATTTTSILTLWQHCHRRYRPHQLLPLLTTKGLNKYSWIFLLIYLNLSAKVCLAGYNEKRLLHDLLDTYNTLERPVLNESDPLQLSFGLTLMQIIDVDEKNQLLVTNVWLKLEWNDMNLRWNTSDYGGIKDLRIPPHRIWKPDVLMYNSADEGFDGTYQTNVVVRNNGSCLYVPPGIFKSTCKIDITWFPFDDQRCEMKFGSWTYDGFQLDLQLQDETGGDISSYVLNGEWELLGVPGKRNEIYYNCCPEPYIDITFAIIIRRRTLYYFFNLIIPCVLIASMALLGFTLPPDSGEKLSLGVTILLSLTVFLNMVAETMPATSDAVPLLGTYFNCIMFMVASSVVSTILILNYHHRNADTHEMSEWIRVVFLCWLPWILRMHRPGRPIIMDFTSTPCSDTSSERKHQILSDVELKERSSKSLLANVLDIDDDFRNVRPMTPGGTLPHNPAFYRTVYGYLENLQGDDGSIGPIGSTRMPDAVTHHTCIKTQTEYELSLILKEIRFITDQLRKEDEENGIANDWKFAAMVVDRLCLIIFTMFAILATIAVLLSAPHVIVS
measurement_notes: Displacement of [3H]IMI from Musca domestica (house fly) head membrane nicotinic acetylcholine receptor
Answer format: value, then unit.

The compound identified as `CN1CCC[C@@H]1c1cccnc1` registered its Activity at 422 µM

The compound identified as C[C@H](c1ccc(Cl)nc1)N1CCN/C1=N\[N+](=O)[O-] [(R)-METHYL-IMIDACLOPRID] registered its Activity at 0.95 µM

The compound identified as `O=[N+]([O-])/N=C1\NCCN1Cc1ccc(Cl)nc1` registered its Activity at 0.02 µM

The compound identified as C[C@@H](c1ccc(Cl)nc1)N1CCN/C1=N\[N+](=O)[O-] [(S)-METHYL-IMIDACLOPRID] registered its Activity at 0.19 µM

The compound identified as `CN1CCC[C@H]1c1cccnc1` registered its Activity at 11.9 µM

The measurements presented in this section are drawn from ChEMBL document CHEMBL3046160.
